Experiment: Inhibition of NADH oxidase (unknown origin) at 5 uM relative to control
Details: Homo sapiens
assayMetric: inhibition (%)

C=Cc1c(C)n(O)c(C)c(CCCCCCCCCCCCCCCC)c1=O: 12

(P) CCCCCCCCCCCCCCCCc1c(C)n(O)c(C)c(N)c1=O
(Q) CCCCCCCc1c(C)n(O)c(C)c(C(C)=O)c1=O
(R) CCCCCCCc1c(C)n(O)c(C)c(N)c1=O
(S) C=Cc1c(C)n(O)c(C)c(CCCCCCC)c1=O
Sort by inhibition, descending. // respond by listing labels in the order requested
R, Q, S, P

---

Assay: Inhibition of NADH oxidase (unknown origin) at 1 uM relative to control
Conditions: Homo sapiens
assayMetric: inhibition (%)

Below, 3 molecules whose answers are already recorded.
C=Cc1c(C)n(O)c(C)c(CCCCCCCCCCCCCCCC)c1=O: 20.1
CCCCCCCc1c(C)n(O)c(C)c(C(C)=O)c1=O: 74.5
C=Cc1c(C)n(O)c(C)c(CCCCCCC)c1=O: 29.7

(A) CCCCCCCc1c(C)n(O)c(C)c(N)c1=O
(B) CCCCCCCCCCCCCCCCc1c(C)n(O)c(C)c(N)c1=O
// compare measured inhibition, left A , right B , return larger Kindly give the label for the entry you pick.
A
(A: 92.9%, B: 17.1%)

---

Test: Antioxidant activity assessed as suppression of lipid peroxidation at 1 uM relative to control
Type: functional
assayMetric: Activity (%)
Just the number in %, nothing appended.

CCCCCCCCCCCCCCCCc1c(C)n(O)c(C)cc1=O: 10

Look up Activity: `CCCCCCCc1c(C)n(O)c(C)c(C(C)=O)c1=O`
11

Look up Activity: `CCCCCCCc1c(C)n(O)c(C)c(Br)c1=O`
0

Look up Activity: `CCCCCCCc1c(C)n(O)c(C)cc1=O`
0

Look up Activity: `C=Cc1c(C)n(O)c(C)c(CCCCCCC)c1=O`
0

Look up Activity: `CCCCCCCc1c(C)n(O)c(C)c(Cl)c1=O`
0

Look up Activity: `CCCCCCCCCCc1c(C)n(O)c(C)c(Br)c1=O`
0

Look up Activity: `C=Cc1c(C)n(O)c(C)c(CCCCCCCCCCCCCCCC)c1=O`
7

Look up Activity: `CCCCCCCc1c(C)n(O)c(C)c(N)c1=O`
14

Look up Activity: `CCCCCCCCCCCCCCCCc1c(C)n(O)c(C)c(N)c1=O`
18

Look up Activity: `CCCCCCCCCCc1c(C)n(O)c(C)c(Cl)c1=O`
0

Look up Activity: `CCCCCCCCCCc1c(C)n(O)c(C)cc1=O`
0

Look up Activity: `CCCCCCCCCCCCCCCCc1c(C)n(O)c(C)c(Br)c1=O`
7
